Reported EC50 (read off the curve) is given for each of the following binders.
Experimental System: T1, human tissue factor (TF) on human bladder carcinoma cells J82 (human, UniProt P13726 33-295)
T1 construct: whole, on cells; also called the antigen; J82 cells
T1 sequence (P13726 33-295): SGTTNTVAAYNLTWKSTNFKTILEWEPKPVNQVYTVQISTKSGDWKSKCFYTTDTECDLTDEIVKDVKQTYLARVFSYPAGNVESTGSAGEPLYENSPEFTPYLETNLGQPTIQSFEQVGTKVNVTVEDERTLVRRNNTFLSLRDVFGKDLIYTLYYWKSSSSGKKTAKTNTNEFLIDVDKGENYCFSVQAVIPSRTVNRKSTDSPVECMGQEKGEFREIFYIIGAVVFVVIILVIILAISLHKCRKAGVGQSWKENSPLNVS
Run Description: cell ELISA on paraformaldehyde-fixed J82 cells; AP-conjugated goat anti-human IgGγ; absorbance 405/655 nm

Illustrative cases are given below, each with its answer.
H chain humanized version b/L chain humanized version b antibody (antibody, IgG4, V domains shown, also called b-b; bb) VH: QVQLLESGAVLARPGTSVKISCKASGFNIKDYYMHWVKQRPGQGLEWIGGNDPANGHSMYDPKFQGRVTITADTSTNTAYMELSSLRSEDTAIYYCARDSGYAMDYWGQGTLVTVSS VL: DIQMTQSPSSLSASVGDRVTITCKASQDIKSFLSWYQQKPGKAPKLLIYYATSLADGVPSRFSGSGSGTDYTLTISSLQPEDFATYYCLQHGESPYTFGGGTKVEIK; ~0.07 µg/mL
H chain humanized version e/L chain chimeric antibody (antibody, IgG4, V domains shown, L chain V region is that of mouse ATR-5; also called e-ch) VH: QVQLLESGAVLARPGTSVKISCKASGFNIKDYYMHWVKQRPGQGLEWIGGNDPANGHSMYDPKFQGRVSITADESTKIAYMELNSLRSEDTAVYFCARDSGYAMDYWGQGTLVTVSS VL: DIKMTQSPSSMYASLGERVTITCKASQDIKSFLSWYQQKPWKSPKTLIYYATSLADGVPSRFSGSGSGQDYSLTINNLESDDTATYYCLQHGESPYTFGGGTKLEIK; ~0.05 µg/mL

Now let's try a different one.
Qu. Recall and state the measured EC50 (read off the curve) for H chain humanized version b/L chain chimeric antibody (antibody, IgG4, V domains shown, L chain V region is that of mouse ATR-5; also called b-ch) VH: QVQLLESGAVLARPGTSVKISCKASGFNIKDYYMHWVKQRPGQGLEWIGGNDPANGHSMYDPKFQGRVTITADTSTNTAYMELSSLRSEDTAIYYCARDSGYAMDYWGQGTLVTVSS VL: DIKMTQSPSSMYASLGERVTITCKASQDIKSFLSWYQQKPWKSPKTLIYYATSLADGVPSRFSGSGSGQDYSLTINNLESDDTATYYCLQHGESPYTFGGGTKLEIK .
Ans. ~0.1 µg/mL
